tested on: MALME-3M melanoma; assay: NCI tumour cell line growth inhibition, 48 h
Decision: TGI compared against 20 µM; not below it gives yes, below it gives no.

> print(dat)
                                    molecule  group.label
 1  COc1cc(/C=C(\NC(=O)c2ccccc2)c2nc3ncncc3[nH]2)cc(OC)c1OC          yes
 2              CC1(C)Cc2c(oc3ncnc(N)c23)CS1          yes
 3  CCOC(=O)/C(C(=S)NCc1ccccc1)=C(/N)N1CCCC1          yes
 4  O=S(=O)(O)c1ccc2c(N=Nc3ccc(S(=O)(=O)O)c4ccccc34)c(O)c(S(=O)(=O)O)cc2c1          yes
 5  CCOC(=O)CCC(NC(=O)c1ccc(Oc2nc3c(N)cc(C(F)(F)F)cc3nc2-c2ccccc2)cc1)C(=O)OCC (stereo not given)          yes
 6  N#Cc1nc(C#N)c(Sc2ccccc2)c(Sc2ccccc2)c1Sc1ccccc1           no
 7      COc1ccc(OC)c(/C=C2\CCc3ccccc3C2=O)c1           no
 8  Clc1ccc2c(c1)N(C1CCCN(Cc3ccccc3)C1)c1ccccc1S2 (stereo not given)          yes
 9                   CCCc1nc(Cl)c(Cl)c(Cl)n1          yes
10  Cc1ccc(Cl)c(NS(=O)(=O)c2ccc(-c3cnc(C4CC4)o3)cc2)c1          yes

---

tested on: SK-OV-3 ovarian; assay: NCI tumour cell line growth inhibition, 48 h
Readout kind: TGI

> print(dat)
                                    molecule  readout.kind  meas.value
 1  CCCCNC(=S)OCCC(C)CCCC(C)C (stereo unspecified)           TGI    > 100 µM
 2  CSc1ccc(NC(=O)C2c3[nH]c4ccccc4c3C3CCC(C(C)(C)C)CC3C2C(=O)O)cc1 (stereo unspecified)           TGI     37.3 µM
 3  COc1ccc(N2C(=O)/C(=C\c3ccccc3)SC2c2cc(OC)c(OC)c(OC)c2)cc1 (stereo unspecified)           TGI    > 100 µM
 4  Clc1ccc2c(c1)N(C1CCCN(Cc3ccccc3)C1)c1ccccc1S2 (stereo unspecified)           TGI    > 100 µM
 5  CS(=O)(=O)c1cccc(Nc2ncc3cc(-c4ccccc4Cl)ccc3n2)c1           TGI     2.99 µM
 6    O=C(N=c1nc(NC(=O)c2ccccc2)ss1)c1ccccc1           TGI     68.9 µM
 7  NS(=O)(=O)c1ccc(NC(=O)C2C(=O)C(=O)N(c3ccc(S(N)(=O)=O)cc3)C2=O)cc1 (stereo unspecified)           TGI    > 100 µM
 8  Cn1c(=O)c(Oc2ccc(F)cc2F)cc2cnc(N[C@@H]3CCOC3)nc21           TGI     > 25 µM
 9  CCOC(=O)OC1C(Br)C2CCC1(C)C2(C)C (stereo unspecified)           TGI     29.5 µM
10         CN(C)C(=S)C(Cl)(c1ccccc1)c1ccccc1           TGI    > 100 µM
11  COc1cc2c3c(n(CCCNCCCNCCN)c(=O)c2cc1OC)-c1cc2c(cc1C3=O)OCO2           TGI    > 100 µM

---

tested on: SF-268 CNS; assay: NCI tumour cell line growth inhibition, 48 h
Readout kind: TGI (µM)

> print(dat)
                                    compound  subject.of.test  measurement.qualifier  meas.value
 1  CCS(=O)c1c2cc(OC)ccc2nc2ccc(OC)cc12 (stereo not given)       SF-268 CNS                      >          62
 2  COc1ccc(N=Nc2ccc3oc(=O)c(C(=O)Nc4ccccc4C)cc3c2)cc1       SF-268 CNS                      >          10
 3  ClCC[N-]CC[N-]CCCl.ClCC[N-]CC[N-]CCCl.[O-][Cl+3]([O-])([O-])O.[Zn+2]       SF-268 CNS                      =        56.6
 4      COc1ccc(OC)c(/C=C2\CCc3ccccc3C2=O)c1       SF-268 CNS                      =        22.2
 5  C=CCN1C[C@H](C)N([C@H](c2ccc(C(=O)N(CC)CC)cc2)c2cccc(OC)c2)C[C@H]1C       SF-268 CNS                      >         100
 6  CCC1(CC)N=C(C(F)(F)F)c2cc(C(=O)C(F)(F)F)c3ccccc3c2N1       SF-268 CNS                      =          27
 7         O=C(O)CCCNc1ncc2c(n1)-c1ccccc1OC2       SF-268 CNS                      >         100
 8  c1ccc(Cn2c(-c3ccc(-c4ccccc4)cc3)cc3ccccc32)cc1       SF-268 CNS                      >         100
 9  Nc1cccc(OCC2CCCN3CCCCC23)c1 (stereo not given)       SF-268 CNS                      =        36.2
10  O=c1oc2ccccc2c(O)c1C(c1ccc(-c2ccccc2)cc1)c1c(O)c2ccccc2oc1=O       SF-268 CNS                      =        57.1

---

test system: SNB-75 CNS; test: NCI tumour cell line growth inhibition, 48 h
Readout kind: TGI (µM)

> print(dat)
                                    compound  readout.kind  measurement.qualifier  meas.value
 1  CCS(=O)c1c2cc(OC)ccc2nc2ccc(OC)cc12 (stereo not given)           TGI                      =        38.2
 2  COC(=O)Cc1c([C@H]2[C@H](CC(=O)OC)c3ccccc3N2S(=O)(=O)c2ccc(C)cc2)[nH]c2ccccc12           TGI                      >         100
 3  O=[N+]([O-])c1ccc2sc(/C=N/c3ccccn3)cc2c1           TGI                      >         100
 4       O=C1NC2(CCCCC2)C(=O)N1CCN(CCCl)CCCl           TGI                      >         250
 5  CNC(=O)c1c(F)cccc1Nc1nc(Nc2cc3c(cc2OC)CCN3C(=O)CN(C)C)nc2[nH]ccc12           TGI                      =        24.7
 6  CC1C=CC(C(N)C(=O)O)O1 (stereo not given)           TGI                      >         100
 7  CN(C)Cc1ccc(NC(=O)c2cncc(C#Cc3cnc(N)c4ncccc34)c2)cc1F           TGI                      =        5.73
 8  Nc1cc2ncnn2c(SCC(=O)N/N=C/C(Br)=C\c2ccccc2)n1           TGI                      >         100
 9  CC(=O)OCC1OC(NC(=O)N(CCCl)N=O)C(OC(C)=O)C(OC(C)=O)C1OC(C)=O (stereo not given)           TGI                      >         100
10  Nc1cccc(OCC2CCCN3CCCCC23)c1 (stereo not given)           TGI                      =        30.8

---

Entries and their TGI
tested on: CAKI-1 renal; test: NCI tumour cell line growth inhibition, 48 h
Readout kind: TGI

> print(dat)
                                    compound  readout.kind  meas.value
 1  Nc1ncc(-c2ccc3ncnc(N4CCc5ccc(Cl)cc54)c3c2)cc1C(F)(F)F           TGI     5.56 µM
 2  Cc1ccc(-c2nc(-c3nccc4ccccc34)oc2-c2ccccc2)cc1           TGI    > 100 µM
 3  CC(=O)C1C(=O)C(=O)N(c2ccc([N+](=O)[O-])cc2)C1=O (stereo not given)           TGI    > 100 µM
 4      c1ccc2c(c1)c1c3c(c4c(n32)=NCCN4)CCC1           TGI    > 100 µM
 5  ClCC[N-]CC[N-]CCCl.ClCC[N-]CC[N-]CCCl.[O-][Cl+3]([O-])([O-])O.[Zn+2]           TGI     39.7 µM
 6  Cn1c(=O)c(Oc2ccc(F)cc2F)cc2cnc(N[C@@H]3CCOC3)nc21           TGI     > 25 µM
 7       C[n+]1c2ccccc2c(CNCC(=O)O)c2ccccc21           TGI     1.84 µM
 8  N#Cc1nc(C#N)c(Sc2ccccc2)c(Sc2ccccc2)c1Sc1ccccc1           TGI    > 100 µM
 9      Oc1ccc2ccccc2c1C=NCc1c(O)ccc2ccccc12           TGI    > 100 µM
10  O=C(COc1ccccc1)N(C(=O)N1CCN(c2ccccc2)CC1)S(=O)(=O)c1ccccc1           TGI    > 100 µM
